# maps each entry to its GI50
tested on: OVCAR-3; assay: NCI tumour cell line growth inhibition, 48 h
Activity calls are given as the source filed them. Cut-off read from the data, not from the text of the source: active = GI50 up to about 1.1 µM and inactive = higher.

Worked set:
CC(=O)Nc1ccc(C2CC(c3ccc([N+](=O)[O-])cc3)=Nc3ccccc3S2)cc1 (centres undefined)
23.2 µM (inactive)
CCCCNC(=O)C1C(=O)N(CCCC)C(=O)/C1=N\N (centres undefined)
> 100 µM (inactive)
FC(F)(F)c1ccccc1C1SCc2nc3ccccc3n21 (centres undefined)
40.1 µM (inactive)

Let's switch to this molecule now.
Lab note: record GI50 of O=C(O)[C@H](CCC[C@H]1C(=O)O[C@H](c2ccccc2)[C@H](c2ccccc2)N1C(=O)OCc1ccccc1)N[C@@H](c1ccccc1)[C@H](O)c1ccccc1 tested on OVCAR-3.
23.7 µM (inactive)
